test system: UO-31 renal; test: NCI tumour cell line growth inhibition, 48 h
Entries and their measured TGI follow.

| COMPOUND | TARGET SYSTEM | RELATION | TGI [µM] |
| --- | --- | --- | --- |
| CCn1c(=O)c(C(=O)O)c(Cl)c2cc3c(cc21)OCO3 | UO-31 renal | > | 100 |
| C#CC1(O)C(COP(=O)(O)OCC2OC(n3cc(F)c(=O)[nH]c3=O)CC2O)OC(n2ccc(N)nc2=O)C1O (stereo unspecified) | UO-31 renal | > | 100 |
| CS(=O)(=O)c1ccc2nc(-c3ccc(O)cc3)sc2c1 | UO-31 renal | = | 28 |
| COc1ccc(C2C(C#N)=C(N)Oc3c2sc2c(Br)cccc32)cc1 (stereo unspecified) | UO-31 renal | = | 17.7 |
| COc1cc2cc3c4c(cc(OC)c(OC)c4c2cc1OC)CCN3C | UO-31 renal | = | 40.6 |
| O=[N+]([O-])c1cc(N=Nc2c(O)ccc3cc(S(=O)(=O)O)ccc23)c(O)c([N+](=O)[O-])c1 | UO-31 renal | > | 100 |
| Cc1c2ccncc2c(C)c2c1[nH]c1ccc(Oc3ccccc3)cc12 | UO-31 renal | = | 35.2 |
| O=C(CC1C(=O)Nc2ccccc2S1(=O)=O)Nc1ccc(Cl)cc1 (stereo unspecified) | UO-31 renal | = | 66.9 |
| CCC1(CC)N=C(C(F)(F)F)c2cc(C(=O)C(F)(F)F)c3ccccc3c2N1 | UO-31 renal | = | 16.9 |
| Oc1ccc(C(O)(c2ccccc2)c2ccccc2)c2ccccc12 | UO-31 renal | = | 11.6 |
| CCC(C)C1=C(O)[N+]2([O-])Oc3ccc(C4=C(O)C(=O)C(c5ccc(O)cc5)=C(O)C4=O)cc3OC2(C(C)CC)C(=O)N1O (stereo unspecified) | UO-31 renal | > | 100 |
| COc1c(C(C)(C)C)cc(CC2C(=O)C=CC2=O)cc1C(C)(C)C | UO-31 renal | = | 27.5 |
| CS(=O)(=O)c1cccc(Nc2ncc3cc(-c4ccccc4Cl)ccc3n2)c1 | UO-31 renal | = | 6.41 |
| O=C(Nc1ccccc1)OC1OC(COC(=O)c2ccccc2)C(OC(=O)c2ccccc2)C1OS(=O)(=O)c1ccc([N+](=O)[O-])cc1 (stereo unspecified) | UO-31 renal | > | 100 |
| Cn1c2ccccc2c2ccc3c(c21)C(=O)C(c1ccccc1)=CC3=O | UO-31 renal | > | 100 |
| COc1cc([N+](=O)[O-])c(S(=O)(=O)O)cc1-n1nc(C(=O)Nc2ccccc2)n[n+]1-c1cc(S(=O)(=O)[O-])c([N+](=O)[O-])cc1OC | UO-31 renal | > | 100 |
| CNC(=O)c1c(F)cccc1Nc1nc(Nc2cc3c(cc2OC)CCN3C(=O)CN(C)C)nc2[nH]ccc12 | UO-31 renal | = | 12.2 |
| CCCCOc1ccc(/C=N/Nc2cc(C)nc3ccc(Br)cc23)cc1 | UO-31 renal | = | 2.82 |
| Nc1nc(Cl)c2ncn(Cc3cccc(CCl)c3)c2n1 | UO-31 renal | = | 33.7 |
| Cn1c(=O)c(Oc2ccc(F)cc2F)cc2cnc(N[C@@H]3CCOC3)nc21 | UO-31 renal | > | 16.2 |
| COc1ccc(-c2cc(-c3ccc(Cl)cc3)nc(NCCCCNc3ccnc4cc(Cl)ccc34)n2)cc1 | UO-31 renal | = | 12.7 |
| CS(=O)(=O)OCCCSCCSCCCOS(C)(=O)=O | UO-31 renal | > | 100 |
| [N-]=[N+]=NCCCn1c2c(c3ccc([N+](=O)[O-])cc3c1=O)C(=O)c1cc(-c3ccccc3)ccc1-2 | UO-31 renal | > | 100 |
| O=C1OCC(c2ccc(Cl)cc2)=C1Cl | UO-31 renal | = | 33.9 |
| Cc1nc2cc3ccccc3cc2[nH]c1=O | UO-31 renal | > | 100 |
| O=C(CCC(=O)Nc1cccc(C(F)(F)F)c1)CC(=O)c1ccc2ccccc2c1 | UO-31 renal | > | 100 |
| COc1ccc2c(O)c(/C=C3\N=Nc4ncccc43)oc2c1C[C@@H]1CCNC[C@H]1F | UO-31 renal | = | 5.18 |
| Nc1cccc(OCC2CCCN3CCCCC23)c1 (stereo unspecified) | UO-31 renal | = | 75.2 |
| CN(C)C(=S)C(Cl)(c1ccccc1)c1ccccc1 | UO-31 renal | > | 100 |
| Cc1nc2sc3c(N)ncnc3c2c(C)c1C | UO-31 renal | > | 25 |
| COc1ccc(/C=C/C(=O)c2c(-c3ccccc3)nn(C)c(=O)c2N2CCOCC2)cc1 | UO-31 renal | > | 100 |
| Cc1ccc(-c2nc(-c3nccc4ccccc34)oc2-c2ccccc2)cc1 | UO-31 renal | > | 100 |
| CC(O)(C#N)CC(O)(C(F)(F)Cl)C(F)(F)Cl (stereo unspecified) | UO-31 renal | > | 10 |
| Cc1ccc(S(=O)(=O)N/N=C2\CCCCCCCCCCC2CN(C)C)cc1 (stereo unspecified) | UO-31 renal | = | 21 |
| COc1ccc(CCNC(=O)c2ccccc2C2c3ccc(OCc4ccccc4)cc3Oc3cc(OCc4ccccc4)ccc32)cc1OC | UO-31 renal | > | 100 |
| CN(C)CCOc1cc2c(c3ccccc13)-c1ccccc1C2O (stereo unspecified) | UO-31 renal | = | 25.2 |
| Nc1cc2ncnn2c(SCC(=O)N/N=C/C(Br)=C\c2ccccc2)n1 | UO-31 renal | = | 32 |
| C(=C\C(Sc1ccccc1)c1ccccc1)/NNC1=NC(c2ccccc2)C(c2ccccc2)=NN1 (stereo unspecified) | UO-31 renal | > | 100 |
| COc1ccc(N2C(=O)/C(=C\c3ccccc3)SC2c2cc(OC)c(OC)c(OC)c2)cc1 (stereo unspecified) | UO-31 renal | > | 100 |
| O=C1C=C(OCC=C(C(F)(F)F)C(F)(F)F)c2ccccc2C1=O | UO-31 renal | = | 3.1 |
| C1CSCCSCSCCS1 | UO-31 renal | > | 100 |

----------
test system: HCT-116 colon; assay: NCI tumour cell line growth inhibition, 48 h
METRIC: TGI

| COMPOUND | READOUT VALUE |
| --- | --- |
| CCOC(=O)CSC1NC(C(=O)OC)CC1OC (centres undefined) | > 100 µM |
| O=C(c1ccc([N+](=O)[O-])cc1)C(Br)C(Br)c1ccnc2ccccc12 (centres undefined) | 4.04 µM |
| COc1ccc(-c2cc(-c3ccc(Cl)cc3)nc(NCCCCNc3ccnc4cc(Cl)ccc34)n2)cc1 | 2.92 µM |
| CCN(CC)C(=S)SCC(=O)Nc1nc2c(s1)CCCC2 | > 100 µM |

----------
test system: RPMI-8226 leukemia; test: NCI tumour cell line growth inhibition, 48 h; in the data active = GI50 below about 0.43 µM; inactive = the rest
Possible outcomes: label 1 (active), label 0 (inactive)

| COMPOUND | LABEL VALUE |
| --- | --- |
| CCOC(=O)c1c(C)nc2c(c1N)/C(=C/c1ccccn1)C(=O)N2Cc1ccccc1 | label 0 |
| COc1ccc(S(=O)(=O)Nc2c(/C=C\c3cc(OC)c(OC)c(OC)c3)ccc(OC)c2O)cc1 | label 1 |
| O=C1Nc2ccccc2/C1=C\c1nc(-c2ccccc2F)n2ccccc12 | label 0 |
| COc1ccccc1[As]=[As]c1ccccc1OC (stereo unspecified) | label 1 |
| COc1ccc(-c2cn(-c3ccc(OC)c(OC)c3)c(=O)[nH]2)cc1 | label 0 |
| Cn1cc(C2=C(c3cn(CCCN)c4ccccc34)C(=O)NC2=O)c2ccccc21 | label 0 |
| C#C[C@@]1(O)[C@@H](CO)O[C@@H](n2cc(C(F)(F)F)c3c(N)ncnc32)[C@@H]1O | label 0 |
| COc1ccc(C(=O)c2cc3c(N)c(C(=O)Nc4cccc(Br)c4C)sc3nc2C)cc1 | label 1 |
| CN(C)Cc1ccc(NC(=O)c2cncc(C#Cc3cnc(N)c4ncccc34)c2)cc1F | label 0 |
| O=C1Cc2cc(CCn3cncn3)c(Cl)cc2N1 | label 0 |
| CC1=C(C(=O)Nc2ccc(F)c(Cl)c2)C(c2cccc(Oc3ccccc3)c2)NC(=S)N1 (stereo unspecified) | label 0 |

----------
test system: LOX IMVI melanoma; test: NCI tumour cell line growth inhibition, 48 h
METRIC: TGI

| COMPOUND | METRIC | READOUT VALUE |
| --- | --- | --- |
| O=C1c2cccc(O)c2C(=O)c2c(O)cccc21 | TGI | > 100 µM |
| COc1c(C(C)(C)C)cc(CC2C(=O)C=CC2=O)cc1C(C)(C)C | TGI | 40.2 µM |
| COC(=O)c1ccc(C)cc1CC1Cc2cccc(C)c2C1=O (stereo not drawn) | TGI | 9.79 µM |
| c1ccc(-c2c(-c3cccs3)[nH]c(-c3cccs3)c2-c2ccccn2)nc1 | TGI | 37.1 µM |
| O=CC1C(Cl)=Nc2nc3ccccc3n2C1c1ccccc1 (stereo not drawn) | TGI | 29 µM |
| CN(/N=C/c1ccccn1)C1=NCCCN1 | TGI | > 100 µM |
| O=C(CC1C(=O)Nc2ccccc2S1(=O)=O)Nc1ccc(Cl)cc1 (stereo not drawn) | TGI | 41.8 µM |
| O=C(NCCOCCOCCOCCNC(=O)c1cc2c(o1)C(=O)c1ccccc1C2=O)NC12CC3CC(CC(C3)C1)C2 | TGI | 3.16 µM |
| Cc1ccc(N=C2N=C(N3CC(C)OC(C)C3)c3ccccc32)cc1 (stereo not drawn) | TGI | > 100 µM |
| COc1ccc(CNc2nc(NCc3ccc(OC)cc3)nc(NC3CCCC3)n2)cc1 | TGI | 76.9 µM |
| C(=C\C(Sc1ccccc1)c1ccccc1)/NNC1=NC(c2ccccc2)C(c2ccccc2)=NN1 (stereo not drawn) | TGI | > 100 µM |
| O=C(N=c1nc(NC(=O)c2ccccc2)ss1)c1ccccc1 | TGI | > 100 µM |
| Cc1nc2sc3c(N)ncnc3c2c(C)c1C | TGI | > 25 µM |
| Nc1nc2c(-c3ccc([N+](=O)[O-])cc3)nnn2c2ccccc12 | TGI | > 100 µM |
| COc1cc2c(oc(=O)c3cc4cc([Si](C)(C)C)oc4c(OC)c32)c2cccc(O)c12 | TGI | > 100 µM |
| CC1C=CC(C(N)C(=O)O)O1 (stereo not drawn) | TGI | > 100 µM |
| Cc1ccc(S(=O)(=O)N/N=C2\CCCCCCCCCCC2CN(C)C)cc1 (stereo not drawn) | TGI | 31.5 µM |
| C#C[C@@]1(O)[C@@H](CO)O[C@@H](n2cc(C(F)(F)F)c3c(N)ncnc32)[C@@H]1O | TGI | 2.98 µM |
| CC(C)OC/N=C(/N)NC#N | TGI | 43.7 µM |
| COC(=O)CC(C(C(=O)OC)C(=O)OC)N1C(=O)OC(c2ccccc2)C1c1ccccc1 (stereo not drawn) | TGI | > 100 µM |
| S=C(N/N=C/c1ccccn1)N1CC2CCC(CC2)C1 | TGI | 12.4 µM |
| COc1cc([N+](=O)[O-])c(S(=O)(=O)O)cc1-n1nc(C(=O)Nc2ccccc2)n[n+]1-c1cc(S(=O)(=O)[O-])c([N+](=O)[O-])cc1OC | TGI | > 100 µM |
| Cc1nc2cc3ccccc3cc2[nH]c1=O | TGI | > 100 µM |
| NC(Cc1c[nH]c2ccc([N+](=O)[O-])cc12)C(=O)O (stereo not drawn) | TGI | > 100 µM |
| O=S(=O)(O)c1ccc2c(N=Nc3ccc(S(=O)(=O)O)c4ccccc34)c(O)c(S(=O)(=O)O)cc2c1 | TGI | > 100 µM |
| O=c1[nH][nH]c(=O)n1/N=C/c1ccccc1 | TGI | > 100 µM |
| CCOC(=O)c1c(C)nc2c(c1N)/C(=C/c1ccccn1)C(=O)N2Cc1ccccc1 | TGI | 1.54 µM |
| Nc1cccc(OCC2CCCN3CCCCC23)c1 (stereo not drawn) | TGI | 31.4 µM |
| Nc1nc(N)c2ncn(CCOC(c3ccccc3)P(=O)(O)O)c2n1 (stereo not drawn) | TGI | > 100 µM |
| CC1(C)Cc2c(oc3ncnc(N)c23)CS1 | TGI | > 100 µM |
| O=C(c1ccc([N+](=O)[O-])cc1)C(Br)C(Br)c1ccnc2ccccc12 (stereo not drawn) | TGI | 4.71 µM |
| COC(=O)c1c(C)c2c(c(C)c1C(=O)OC)-c1c(C)ccc3ccc(C)c-2c13 | TGI | > 86.5 µM |
| COc1cc2ncnc(Nc3ccc(Oc4ccnc(C)c4)c(C)c3)c2cc1NC(=O)CC1CCSS1 (stereo not drawn) | TGI | > 50 µM |
| COc1ccccc1/C=C\C(=O)C1COCN1 (stereo not drawn) | TGI | 38.1 µM |
| O=C1OCC(c2ccc(Cl)cc2)=C1Cl | TGI | 60.3 µM |
| CC/C(Cl)=N\OC(=O)Nc1ccc(OC)c(C)c1 | TGI | 31.1 µM |
| Oc1ccc2ccccc2c1C=NCc1c(O)ccc2ccccc12 | TGI | > 100 µM |
| O=C1NC2(CCCCC2)C(=O)N1CCN(CCCl)CCCl | TGI | > 250 µM |
| O=[N+]([O-])c1cc(N=Nc2c(O)ccc3cc(S(=O)(=O)O)ccc23)c(O)c([N+](=O)[O-])c1 | TGI | > 100 µM |
| CC(=O)OCC1OC(NC(=O)N(CCCl)N=O)C(OC(C)=O)C(OC(C)=O)C1OC(C)=O (stereo not drawn) | TGI | > 100 µM |
| NC(CCP(=O)(O)O)C(=O)O (stereo not drawn) | TGI | > 100 µM |
| CCC(=O)N1C/C(=C/c2ccc(Br)cc2)C(=O)/C(=C/c2ccc(Br)cc2)C1 | TGI | 0.248 µM |
| CCC(C)C1=C(O)[N+]2([O-])Oc3ccc(C4=C(O)C(=O)C(c5ccc(O)cc5)=C(O)C4=O)cc3OC2(C(C)CC)C(=O)N1O (stereo not drawn) | TGI | 33.9 µM |

Just for reference, PubChem BioAssay (NCI) is where these values come from.
